measured target: Cellular tumor antigen p53 (Homo sapiens) (UniProt P04637)
Sequence (P04637 whole entry, looked up): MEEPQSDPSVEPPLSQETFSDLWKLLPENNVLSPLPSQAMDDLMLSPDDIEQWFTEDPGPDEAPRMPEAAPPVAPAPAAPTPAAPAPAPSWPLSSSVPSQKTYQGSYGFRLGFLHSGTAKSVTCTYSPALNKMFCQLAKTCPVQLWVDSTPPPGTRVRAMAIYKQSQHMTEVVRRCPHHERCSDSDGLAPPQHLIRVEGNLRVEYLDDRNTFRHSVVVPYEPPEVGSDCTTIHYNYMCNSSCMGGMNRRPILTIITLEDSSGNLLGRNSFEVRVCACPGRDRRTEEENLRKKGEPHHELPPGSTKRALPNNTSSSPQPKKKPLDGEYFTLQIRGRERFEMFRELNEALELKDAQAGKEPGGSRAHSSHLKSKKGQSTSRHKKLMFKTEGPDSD
measurement protocol: TOX21_p53_BLA_p2_ratio: Tox21 HCT-116 p53 Agonism Beta-lactamase Assay, Ratio, Phase 2 (AID 2283592)
Records with an inconclusive call do not appear. Activity calls are given as the source filed them. Rule for the calls: active = hit-call score of the fitted dose curve at least 0.9, where 1 is the maximum; inconclusive = response in the unintended direction; inactive = score below 0.9.
Outcomes: active, inactive

[[record]]
molecule = "Clc1ccc(C(Cn2ccnc2)OCc2c(Cl)cccc2Cl)c(Cl)c1 (stereo not given)"
label_value = "active"

[[record]]
molecule = "Cc1cc(C)c(S(=O)(=O)O)cc1N=Nc1cc(S(=O)(=O)O)c2ccccc2c1O"
label_value = "inactive"

[[record]]
molecule = "CN(C(=O)CO)c1c(I)c(C(=O)NCC(O)CO)c(I)c(C(=O)NCC(O)CO)c1I (stereo not given)"
label_value = "inactive"

[[record]]
molecule = "N[C@@H](COP(=O)(O)O)C(=O)O"
label_value = "inactive"

[[record]]
molecule = "CCCCCCCCCC/C=C/C1CC(=O)OC1=O (stereo not given)"
label_value = "inactive"

[[record]]
molecule = "CC(=O)O[C@]1(C(C)=O)CC[C@H]2[C@@H]3C=C(C)C4=CC(=O)CC[C@]4(C)[C@H]3CC[C@@]21C"
label_value = "inactive"

[[record]]
molecule = "ICCc1ccccc1"
label_value = "inactive"

[[record]]
molecule = "COC1=C(OC)C(=O)C(C/C=C(\\C)CC/C=C(\\C)CC/C=C(\\C)CC/C=C(\\C)CC/C=C(\\C)CC/C=C(\\C)CC/C=C(\\C)CC/C=C(\\C)CC/C=C(\\C)CCC=C(C)C)=C(C)C1=O"
label_value = "inactive"

[[record]]
molecule = "CCCc1c2oc(C(=O)O)cc(=O)c2cc2c(=O)cc(C(=O)O)n(CC)c12"
label_value = "inactive"

[[record]]
molecule = "Nc1cc(-c2ccncc2)c[nH]c1=O"
label_value = "inactive"


---

measurement protocol: BSK_3C_TissueFactor: BioMAP Diversity Plus: 3C Assay for Tissue Factor Biomarker Activity (AID 2282997)
reported conditions: BioMAP 3C HUVEC, tissue factor biomarker readout; actives raise or lower the signal
The source made the active and inactive calls. How the source made its calls: active means hit-call score of the fitted dose curve at least 0.9, where 1 is the maximum; inactive means score below 0.9.
Outcomes: 1 for active, 0 for inactive

[[record]]
compound = "CC(C)CC(=O)CC(C)CC(C)C (stereo not drawn)"
label_value = 1

[[record]]
compound = "CCCCCCC(O)CCCCCCCCCCC(=O)OC (stereo not drawn)"
label_value = 0

[[record]]
compound = "Cc1cc(-n2nc3ccc(Cl)cc3n2)c(O)c(C(C)(C)C)c1"
label_value = 0

[[record]]
compound = "Cc1c(C(N)=O)cc([N+](=O)[O-])cc1[N+](=O)[O-]"
label_value = 0

[[record]]
compound = "COc1ccccc1Oc1c(NS(=O)(=O)c2ccc(C(C)(C)C)cc2)nc(-c2ncccn2)nc1OCCO"
label_value = 0

[[record]]
compound = "CCCCCCCCCCCCCCCCCC[N+](C)(C)C"
label_value = 1

[[record]]
compound = "Sc1nc2ccccc2s1"
label_value = 1

[[record]]
compound = "Cc1cccnc1"
label_value = 0

[[record]]
compound = "Oc1cccc2ccccc12"
label_value = 1

[[record]]
compound = "CC[N+](CC)(CC(=O)Nc1c(C)cccc1C)Cc1ccccc1"
label_value = 0

[[record]]
compound = "CCCCCCCCCC/C=C/C1CC(=O)OC1=O (stereo not drawn)"
label_value = 0

[[record]]
compound = "CCC[Si](OC(C)=O)(OC(C)=O)OC(C)=O"
label_value = 0

[[record]]
compound = "CC[N+](CC)(CC(=O)Nc1c(C)cccc1C)Cc1ccccc1 (tested in a mixture with another compound)"
label_value = 0


---

measured target: Cellular tumor antigen p53 (Homo sapiens)
measurement protocol: TOX21_p53_BLA_p3_ratio: Tox21 HCT-116 p53 Agonism Beta-lactamase Assay, Ratio, Phase 3 (AID 2283596)
Inconclusive results are not listed. Activity calls are given as the source filed them. The calls were made as follows: active = hit-call score of the fitted dose curve at least 0.9, where 1 is the maximum; inconclusive = response in the unintended direction; inactive = score below 0.9.
endpoint: AC50

[[record]]
compound = "CCCCNCCCC"
endpoint = "AC50"
assay_value = "inactive"

[[record]]
compound = "CC(C)[N+]1(C)[C@@H]2CC[C@H]1CC(OC(=O)C(CO)c1ccccc1)C2 (stereo partly specified)"
endpoint = "AC50"
assay_value = "inactive"

[[record]]
compound = "CC[C@H]1OC(=O)C[C@@H](O)[C@H](C)[C@@H](O[C@@H]2O[C@H](C)[C@@H](O[C@H]3C[C@@](C)(O)[C@@H](O)[C@H](C)O3)[C@H](N(C)C)[C@H]2O)[C@@H](CC=O)C[C@@H](C)C(=O)/C=C/C(C)=C/[C@@H]1CO[C@@H]1O[C@H](C)[C@@H](O)[C@@H](OC)[C@H]1OC"
endpoint = "AC50"
assay_value = "inactive"

[[record]]
compound = "O=C(OOC(=O)c1ccccc1)c1ccccc1"
endpoint = "AC50"
assay_value = "inactive"

[[record]]
compound = "Cc1cc(/C=C/c2ccc3cc(N(C)C)ccc3[n+]2C)c(C)n1-c1ccccc1"
endpoint = "AC50"
assay_value = "16.1 µM (active)"

[[record]]
compound = "CNC[C@H](O)c1ccc(O)c(O)c1"
endpoint = "AC50"
assay_value = "inactive"

[[record]]
compound = "CCC(C(=O)OCCOCCN(CC)CC)c1ccccc1 (stereo unspecified)"
endpoint = "AC50"
assay_value = "inactive"

[[record]]
compound = "C[n+]1c2cc(N)ccc2cc2ccc(N)cc21 (tested in a mixture with another compound)"
endpoint = "AC50"
assay_value = "9.45 µM (active)"

[[record]]
compound = "Cc1nc(Nc2ncc(C(=O)Nc3c(C)cccc3Cl)s2)cc(N2CCN(CCO)CC2)n1"
endpoint = "AC50"
assay_value = "36.5 µM (active)"

[[record]]
compound = "NS(=O)(=O)c1ccccc1OC(F)(F)F"
endpoint = "AC50"
assay_value = "inactive"

[[record]]
compound = "CC(O)(c1ccc(Cl)cc1)c1ccc(Cl)cc1"
endpoint = "AC50"
assay_value = "inactive"

[[record]]
compound = "N=C(N)n1cccn1"
endpoint = "AC50"
assay_value = "inactive"

[[record]]
compound = "O=C(O)P(=O)(O)O"
endpoint = "AC50"
assay_value = "inactive"

[[record]]
compound = "CC(=O)Oc1c(C)cc(OCC(O)CNC(C)C)c(C)c1C (stereo unspecified)"
endpoint = "AC50"
assay_value = "inactive"

[[record]]
compound = "CC(C(=O)O)c1ccc(-c2ccccc2)c(F)c1 (stereo unspecified)"
endpoint = "AC50"
assay_value = "inactive"

[[record]]
compound = "CCCCCCCCCC/C=C/C1CC(=O)OC1=O (stereo unspecified)"
endpoint = "AC50"
assay_value = "inactive"

[[record]]
compound = "O=C1C=CC(=O)N1"
endpoint = "AC50"
assay_value = "70.8 µM (active)"

[[record]]
compound = "CO/N=C(\\C(=O)N[C@@H]1C(=O)N2C(C(=O)O)=C(CSc3nc(=O)c(O)nn3C)CS[C@H]12)c1csc(N)n1"
endpoint = "AC50"
assay_value = "inactive"

[[record]]
compound = "Cc1ccc(=O)n(-c2ccccc2)c1"
endpoint = "AC50"
assay_value = "inactive"

[[record]]
compound = "O=C(O)C[C@H](NC(=O)OCc1ccccc1)C(=O)O"
endpoint = "AC50"
assay_value = "inactive"

[[record]]
compound = "CC(C)SCc1ccco1"
endpoint = "AC50"
assay_value = "inactive"

[[record]]
compound = "CCCCC(CC)CN1CN(CC(CC)CCCC)CC(C)(N)C1 (stereo unspecified)"
endpoint = "AC50"
assay_value = "inactive"

[[record]]
compound = "Brc1c(NC2=NCCN2)ccc2nccnc12"
endpoint = "AC50"
assay_value = "inactive"

[[record]]
compound = "NC(=O)Nc1ccc(Cl)c(Cl)c1"
endpoint = "AC50"
assay_value = "inactive"

[[record]]
compound = "Nc1nc2ccc(OC(F)(F)F)cc2s1"
endpoint = "AC50"
assay_value = "7.29 µM (active)"

[[record]]
compound = "CC(C)NCC(O)COc1cccc2[nH]ccc12 (stereo unspecified)"
endpoint = "AC50"
assay_value = "inactive"


---

System: SRY-box transcription factor 17 (SOX17) Protein Expression, Deisenroth Lab, SOX17 (gene 64321)
measurement protocol: CCTE_Deisenroth_DEVTOX-GLR_legacy_Sox17: (Legacy) CCTE's DevTox GLR-Endo Assay Evaluation of SRY-box transcription factor 17 (SOX17) Protein Expression, Deisenroth Lab (AID 2284341)
reported conditions: actives raise or lower the signal
Experimental: CCTE_Deisenroth_DEVTOX-GLR_legacy assay is a cell-based, multiplex-readout assay that uses RUES2-GLR, a human pluripotent cell line, with measurements taken at 48 hours after chemical dosing in a 384-well microplateCCTE_Deisenroth_DEVTOX-GLR_legacy_Sox17 is one of 4 assay components calculated from the CCTE_Deisenroth_DEVTOX-GLR_legacy assay and it measures an increase in the percentage of cells in an endoderm state. […]
Activity calls are given as the source filed them. How the source made its calls: active means hit-call score of the fitted dose curve at least 0.9, where 1 is the maximum; inactive means score below 0.9. *1 amine or outer side, *2 acyl side, *3 side chain or, on linkers, in order; H or OH if unused. Where a SMILES comes first, the peptide text is derived from it. Bridges are numbered along the chain shown (N, C = ends). Roman numbers before positions name the chains, in order. [ ]: non-standard residue; d: D form. Actinocin(9to1) = Cc1c2oc3c(C)ccc(C(=O)[*:1])c3nc-2c(C(=O)[*:2])c(N)c1=O; NMeV = CN[C@H](C(=O)O)C(C)C; Sar = CNCC(=O)O
endpoint: AC50

[[record]]
compound = "Cc1nc(Nc2ncc(C(=O)Nc3c(C)cccc3Cl)s2)cc(N2CCN(CCO)CC2)n1"
endpoint = "AC50"
assay_value = "811 nM (active)"

[[record]]
compound = "Cc1c2oc3c(C)ccc(C(=O)N[C@@H]4C(=O)N[C@H](C(C)C)C(=O)N5CCC[C@H]5C(=O)N(C)CC(=O)N(C)[C@@H](C(C)C)C(=O)O[C@@H]4C)c3nc-2c(C(=O)N[C@@H]2C(=O)N[C@H](C(C)C)C(=O)N3CCC[C@H]3C(=O)N(C)CC(=O)N(C)[C@@H](C(C)C)C(=O)O[C@@H]2C)c(N)c1=O (I: T[dV]P[Sar][NMeV] / II: T[dV]P[Sar][NMeV]; ester I:1-I:C, II:1-II:C; linker I:N-II:N via Actinocin(9to1))"
endpoint = "AC50"
assay_value = "0.544 nM (active)"

[[record]]
compound = "O=c1[nH]c(=O)n([C@H]2C[C@H](O)[C@@H](CO)O2)cc1Br"
endpoint = "AC50"
assay_value = "857 nM (active)"

